The reported numbers originate from PubChem BioAssay (NCI).

Tested on: OVCAR-3 ovarian
Experiment: NCI tumour cell line growth inhibition, 48 h
Property: TGI; scope: individual compounds

compound | tgt | TGI
BrC(=C(c1ccc(OC2CCCCO2)cc1)c1ccc(OC2CCCCO2)cc1)c1ccccc1 (stereo unspecified) | OVCAR-3 ovarian | > 100 µM
Cc1ccc(C)c(NC(=O)c2cccc([N+](=O)[O-])c2O)c1 | OVCAR-3 ovarian | > 100 µM
COc1ccc(-c2ccc(=O)oc2C#Cc2cc(OC)c(OC)c(OC)c2)cc1O | OVCAR-3 ovarian | 0.612 µM
CCCNc1ncnc2c1ncn2C | OVCAR-3 ovarian | > 100 µM
COc1ccc2c(c1OCC(=O)O)C(=O)C(CCC(=O)O)CC2 (stereo unspecified) | OVCAR-3 ovarian | > 100 µM
N#CC(C(=O)/C(=N\NC(N)=O)C(C#N)c1ccc(Cl)cc1)c1ccc(Cl)cc1 (stereo unspecified) | OVCAR-3 ovarian | > 100 µM
